# Tested Target: T1, recombinant human IGFBP-3 (human, UniProt P17936 28-291)
# T1 construct: mature; Secreted recombinant protein
# T1 sequence (P17936 28-291): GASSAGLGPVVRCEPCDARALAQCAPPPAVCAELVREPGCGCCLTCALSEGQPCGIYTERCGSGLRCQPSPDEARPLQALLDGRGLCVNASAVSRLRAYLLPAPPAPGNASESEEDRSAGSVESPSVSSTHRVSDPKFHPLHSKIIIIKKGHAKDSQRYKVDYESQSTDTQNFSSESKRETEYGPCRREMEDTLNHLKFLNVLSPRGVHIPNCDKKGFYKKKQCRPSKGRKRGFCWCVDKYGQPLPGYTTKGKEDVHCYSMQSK
# Experiment Notes: competitive phage ELISA
Measurement Type: IC50 (pM)
One number for each entry, in pM.

Worked cases, IC50 given:
{"Binder": "IGF-I N26A displayed on phage (ligand, On phage; G1S-A70V template; not shown: Display carrier: M13 gene III protein fragment (residues 249-406) and the junction to it) SPETLCGAELVDALQFVCGDRGFYFAKPTGYGSSSRRAPQTGIVDECCFRSCDLRRLEMYCAPLKPAKSV", "Measurement Type": "IC50", "Unit Descriptor": "pM", "Numeric Readout": 900}
{"Binder": "IGF-I K68A displayed on phage (ligand, not shown: large carriers; small tags and cut ends, On phage; G1S-A70V template) SPETLCGAELVDALQFVCGDRGFYFNKPTGYGSSSRRAPQTGIVDECCFRSCDLRRLEMYCAPLKPAASV", "Measurement Type": "IC50", "Unit Descriptor": "pM", "Numeric Readout": 760}
{"Binder": "IGF-I F16A displayed on phage (ligand, On phage; G1S-A70V template; not shown: M13 gene III fragment (residues 249-406), the display carrier, and its junction) SPETLCGAELVDALQAVCGDRGFYFNKPTGYGSSSRRAPQTGIVDECCFRSCDLRRLEMYCAPLKPAKSV", "Measurement Type": "IC50", "Unit Descriptor": "pM", "Numeric Readout": 1320}

Look at each binder and report its IC50.
1. IGF-I S69A displayed on phage (ligand, not shown: large carriers; small tags and cut ends, On phage; G1S-A70V template) SPETLCGAELVDALQFVCGDRGFYFNKPTGYGSSSRRAPQTGIVDECCFRSCDLRRLEMYCAPLKPAKAV
2. IGF-I G22A displayed on phage (ligand, On phage; G1S-A70V template; not shown: Display carrier: M13 gene III protein fragment (residues 249-406) and the junction to it) SPETLCGAELVDALQFVCGDRAFYFNKPTGYGSSSRRAPQTGIVDECCFRSCDLRRLEMYCAPLKPAKSV

[A]
1. 710
2. 2070

Look at each binder and report its IC50.
1. IGF-I D12A displayed on phage (ligand, On phage; G1S-A70V template; not shown: M13 gene III fragment (residues 249-406), the display carrier, and its junction) SPETLCGAELVAALQFVCGDRGFYFNKPTGYGSSSRRAPQTGIVDECCFRSCDLRRLEMYCAPLKPAKSV
2. IGF-I L10A displayed on phage (ligand, On phage; G1S-A70V template; not shown: M13 gene III fragment (residues 249-406), the display carrier, and its junction) SPETLCGAEAVDALQFVCGDRGFYFNKPTGYGSSSRRAPQTGIVDECCFRSCDLRRLEMYCAPLKPAKSV
3. IGF-I T4A displayed on phage (ligand, not shown: large carriers; small tags and cut ends, On phage; G1S-A70V template) SPEALCGAELVDALQFVCGDRGFYFNKPTGYGSSSRRAPQTGIVDECCFRSCDLRRLEMYCAPLKPAKSV
4. IGF-I R56A displayed on phage (ligand, On phage; G1S-A70V template; not shown: Display partner: M13 gene III protein fragment (residues 249-406, mature count) and the junction to it) SPETLCGAELVDALQFVCGDRGFYFNKPTGYGSSSRRAPQTGIVDECCFRSCDLRALEMYCAPLKPAKSV
5. IGF-I G19A displayed on phage (ligand, On phage; G1S-A70V template; not shown: M13 gene III fragment (residues 249-406), the display carrier, and its junction) SPETLCGAELVDALQFVCADRGFYFNKPTGYGSSSRRAPQTGIVDECCFRSCDLRRLEMYCAPLKPAKSV

[A]
1490
3550
800
1000
900

Look at each binder and report its IC50.
1. IGF-I L14A displayed on phage (ligand, On phage; G1S-A70V template; not shown: M13 gene III fragment (residues 249-406), the display carrier, and its junction) SPETLCGAELVDAAQFVCGDRGFYFNKPTGYGSSSRRAPQTGIVDECCFRSCDLRRLEMYCAPLKPAKSV
2. IGF-I L57A displayed on phage (ligand, On phage; G1S-A70V template; not shown: M13 gene III protein fragment (residues 249-406), the phage display carrier, and its junction to IGF-I) SPETLCGAELVDALQFVCGDRGFYFNKPTGYGSSSRRAPQTGIVDECCFRSCDLRRAEMYCAPLKPAKSV
3. IGF-I K27A displayed on phage (ligand, On phage; G1S-A70V template; not shown: Display carrier: M13 gene III protein fragment (residues 249-406) and the junction to it) SPETLCGAELVDALQFVCGDRGFYFNAPTGYGSSSRRAPQTGIVDECCFRSCDLRRLEMYCAPLKPAKSV

[A]
900
1780
660

The reported measurements were obtained from patent US6403764.
